Displacement values for the molecules below.
# tested on: Adrenergic receptor alpha-2 (Rattus norvegicus) (UniProt P22086+P19328+P22909)
# assay explanation: Binding affinity towards alpha-2 adrenergic receptor from rat brain homogenate preparation by displacement of [3H]clonidine at 10e-6 M concentration
# Type: tissue-based

Solved entries:
1. COc1cc2nc(N3CCCCC3)cc(N)c2cc1OC    < 50%
2. C=CCNC(=O)N1CCN(c2cc(N)c3cc(OC)c(OC)cc3n2)CC1    < 50%

(Q) What value of Displacement has been recorded for this entry: COc1cc2nc(N3CCNCC3)cc(N)c2cc1OC
(A) < 50%

====

# Test system: Rattus norvegicus
# assay explanation: Percent reduction in Spontaneously hypertensive rat blood pressure after 1 h of 3 mg/kg, po administration
# Format: functional
Reduction values for the compounds below.
Give just the numeric value; % need not be written.

Solved entries:
1. COc1cc2nc(N3CCN(C(=O)c4ccccc4)CC3)cc(N)c2cc1OC    19
2. COc1cc2nc(N(C)C)cc(N)c2cc1OC    12
3. C=CCNC(=O)N1CCN(c2cc(N)c3cc(OC)c(OC)cc3n2)CC1    15

Now, please, on to the next compound.
(Q) What value of Reduction has been recorded for this entry: COc1cc2nc(N3CCN(C(C)=O)CC3)cc(N)c2cc1OC
(A) 4
